molecular target: T1, 006 PSMA Fab (biotinylated (site not stated)); test: clonal phage ELISA, biotinylated PSMA Fab on neutravidin plate, anti-M13 HRP detection; competitor PSMA antigen
T1 construct: Biotinylated PSMA Fab captured on neutravidin coated plates in the clonal phage ELISA; also called Anti-PSMA Fab; anti-PSMA Fab
Where no end group is shown, it is not given here.
# if value of phage binding ELISA signal with PSMA antigen present reaches 0.08, tag Fulfilled; if it stays below, tag Not fulfilled

Would you please look over these solved cases?
BINDER	LABEL_VALUE
LDKRCVPVWMCEGF (cysteine pairing not given here; also: fused to phage pIII, orientation and linker not given here) [Phage-3127]	Fulfilled
GMIQCRPAWMCAGL (cysteine pairing not given here; also: fused to phage pIII, orientation and linker not given here) [Phage-3122]	Fulfilled
FHIMCQPEWMCLGF [Phage-3116]	Fulfilled

Q) Hi team, for EFPLCVPAWMCSGF [Phage-3115] , is the recorded phage binding ELISA signal with PSMA antigen present at or above 0.08?
A) Fulfilled

Q) Does the binder DYHYCEPAWMCFGF [Phage-3119] have recorded phage binding ELISA signal with PSMA antigen present that is 0.08 or more?
A) Not fulfilled

Q) Please tell me: is the binder NEPWCVPAWMCTGF [Phage-3120] at or over 0.08 in terms of phage binding ELISA signal with PSMA antigen present?
A) Fulfilled

Q) Does APVFCKPAWMCPWL [Phage-3121] have a reported phage binding ELISA signal with PSMA antigen present of at least 0.08?
A) Not fulfilled

Q) Is phage binding ELISA signal with PSMA antigen present at least 0.08? Consider VNVKCVPSWMCSGF (cysteine pairing not given here; also: fused to phage pIII, orientation and linker not given here) [Phage-3125]
A) Not fulfilled

Q) Evaluate SGALCVPLWMCTGF [Phage-3117] : phage binding ELISA signal with PSMA antigen present at minimum 0.08?
A) Fulfilled

Q) API: above_or_equal(metric=phage binding ELISA signal with PSMA antigen present, cutoff=0.08) for item FEILCRPLWMCSGF (cysteine pairing not given here; also: fused to phage pIII, orientation and linker not given here) [Phage-3126]
A) Fulfilled

Q) Please check the record LESMCIPPWMCSGL [Phage-3118] and state if its phage binding ELISA signal with PSMA antigen present is at or above 0.08.
A) Fulfilled

Q) Quick check, phage binding ELISA signal with PSMA antigen present >= 0.08? GYPLCIPEWMCAGF (cysteine pairing not given here; also: fused to phage pIII, orientation and linker not given here) [Phage-3123]
A) Fulfilled
